- ASSAYED SYSTEM: Calmodulin-1 (Homo sapiens) (UniProt P0DP23)
- TEST SUMMARY: CALM1 binders on microarrays, EGTA buffer, profiling panel, biochemical, small-molecule microarray, Cy5-labelled CALM1 (AID 1111);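 further: labelled calmodulin applied in Tris saline Tween buffer holding calcium plus EGTA and DTT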
- CONDITION LABEL: Cy5-CALM1 binding fluorescence, higher = more signal
The label depends only on composite z-score: 1 if it is at least -0.3, 0 if it is smaller.

[
  {
    "COMPOUND": "CC(=O)OC[C@H]1O[C@@H](ON=C(C)CCC(=O)OC[C@H]2O[C@H](C#Cc3ccccc3)C=C[C@@H]2Oc2ccc(C)cc2)[C@H](OC(C)=O)[C@@H](OC(C)=O)[C@@H]1OC(C)=O",
    "CAT": 1
  },
  {
    "COMPOUND": "O=C1C[C@@H](O)[C@@H](O)[C@@H]2[C@@H]3C(=O)N(Cc4ccccc4)C(=O)[C@@H]3CC[C@H]12",
    "CAT": 1
  },
  {
    "COMPOUND": "O=C1[C@H]2[C@H]3[C@H](O)[C@H](O)CC(=NO[C@@H]4O[C@H](CO)[C@@H](O)[C@H](O)[C@H]4O)[C@@H]3CC[C@H]2C(=O)N1C1CCCCC1",
    "CAT": 1
  },
  {
    "COMPOUND": "CCc1cc2c(nc1CC)CCN(CCC(C)=NO[C@@H]1O[C@H](COC(C)=O)[C@@H](OC(C)=O)[C@H](OC(C)=O)[C@H]1OC(C)=O)C2",
    "CAT": 1
  },
  {
    "COMPOUND": "COC(=O)CC=C[C@@H](C)[C@@H](C=NOC[C@@H](C)[C@H](OCc1ccccc1)C(C)C)NS(=O)(=O)c1ccc(C)cc1",
    "CAT": 0
  },
  {
    "COMPOUND": "CC(C)=NO[C@@H](C)c1cn([C@H](CO)Cc2ccccc2)nn1",
    "CAT": 1
  },
  {
    "COMPOUND": "C[C@H]1CC[C@H]2C(=O)N[C@H](Cc3ccccc3)C(=O)N2[C@@H]1c1ccccc1",
    "CAT": 0
  },
  {
    "COMPOUND": "O=C1[C@H]2[C@H]3[C@H](O)[C@H](O)CC(=NOC[C@@H](O)COCc4ccco4)[C@@H]3CC[C@H]2C(=O)N1Cc1ccccc1",
    "CAT": 0
  },
  {
    "COMPOUND": "Cc1ccc2[nH]c3nc(CCCn4ccnc4-c4ccccc4)nnc3c2c1",
    "CAT": 1
  },
  {
    "COMPOUND": "COc1ccc(O[C@H]2C=C[C@@H](c3ccccc3)O[C@@H]2COC(=O)NCc2cccc3ccccc23)cc1",
    "CAT": 0
  },
  {
    "COMPOUND": "CCOC(=O)[C@H](CC(C)C)NC(=O)CCC1CC(OC(=O)NCc2ccc3c(c2)OCO3)CC2(CCCC(COC(=O)NCCC(C)C)O2)O1 (stereo not given in full)",
    "CAT": 0
  },
  {
    "COMPOUND": "CCCC[C@H]1CN2[C@@H](CC[C@@H](C)[C@@H]2c2ccc(Br)cc2)C(=O)O1",
    "CAT": 1
  },
  {
    "COMPOUND": "CO[C@@H]1C=CCC(=O)N[C@@H](C)C(=O)OC[C@@H](OC)[C@H](C)C=CCC(=O)OC[C@H]1C",
    "CAT": 0
  },
  {
    "COMPOUND": "CC(C)=NOC(C)CN1CCCc2nc(C)c(C)cc21 (stereo not given)",
    "CAT": 1
  },
  {
    "COMPOUND": "CO[C@@H]1COC(=O)[C@H](COCc2ccccc2)NC(=O)CC=C[C@@H](C)[C@H](OC)COC(=O)[C@@H](C)NC(=O)CC=C[C@H]1C",
    "CAT": 0
  },
  {
    "COMPOUND": "C=CC[C@@H]1C=C[C@H](ON=CC[C@@H]2C=C[C@H](OC(C)=O)[C@@H](COC(C)=O)O2)[C@@H](CO)O1",
    "CAT": 1
  },
  {
    "COMPOUND": "CC(=O)OC[C@H]1O[C@H](CC=NOCC[C@@H]2C=C[C@H](OC(C)=O)[C@@H](COC(C)=O)O2)C=C[C@@H]1OC(C)=O",
    "CAT": 0
  },
  {
    "COMPOUND": "CCCNC(=O)OC[C@H]1O[C@H](CCON=C2C[C@@H](O)[C@@H](O)[C@@H]3[C@@H]4C(=O)N(CC)C(=O)[C@@H]4CC[C@@H]23)C=C[C@@H]1Oc1ccc(OC)cc1",
    "CAT": 1
  },
  {
    "COMPOUND": "O=C1C[C@@H](O)[C@@H](O)[C@@H]2[C@@H]3C(=O)N(c4ccc(F)cc4F)C(=O)[C@@H]3CC[C@H]12",
    "CAT": 1
  }
]

---

- ASSAYED SYSTEM: Neurogenic locus notch homolog protein 3 (Homo sapiens) (UniProt Q9UM47)
- Sequence (Q9UM47 whole entry, looked up): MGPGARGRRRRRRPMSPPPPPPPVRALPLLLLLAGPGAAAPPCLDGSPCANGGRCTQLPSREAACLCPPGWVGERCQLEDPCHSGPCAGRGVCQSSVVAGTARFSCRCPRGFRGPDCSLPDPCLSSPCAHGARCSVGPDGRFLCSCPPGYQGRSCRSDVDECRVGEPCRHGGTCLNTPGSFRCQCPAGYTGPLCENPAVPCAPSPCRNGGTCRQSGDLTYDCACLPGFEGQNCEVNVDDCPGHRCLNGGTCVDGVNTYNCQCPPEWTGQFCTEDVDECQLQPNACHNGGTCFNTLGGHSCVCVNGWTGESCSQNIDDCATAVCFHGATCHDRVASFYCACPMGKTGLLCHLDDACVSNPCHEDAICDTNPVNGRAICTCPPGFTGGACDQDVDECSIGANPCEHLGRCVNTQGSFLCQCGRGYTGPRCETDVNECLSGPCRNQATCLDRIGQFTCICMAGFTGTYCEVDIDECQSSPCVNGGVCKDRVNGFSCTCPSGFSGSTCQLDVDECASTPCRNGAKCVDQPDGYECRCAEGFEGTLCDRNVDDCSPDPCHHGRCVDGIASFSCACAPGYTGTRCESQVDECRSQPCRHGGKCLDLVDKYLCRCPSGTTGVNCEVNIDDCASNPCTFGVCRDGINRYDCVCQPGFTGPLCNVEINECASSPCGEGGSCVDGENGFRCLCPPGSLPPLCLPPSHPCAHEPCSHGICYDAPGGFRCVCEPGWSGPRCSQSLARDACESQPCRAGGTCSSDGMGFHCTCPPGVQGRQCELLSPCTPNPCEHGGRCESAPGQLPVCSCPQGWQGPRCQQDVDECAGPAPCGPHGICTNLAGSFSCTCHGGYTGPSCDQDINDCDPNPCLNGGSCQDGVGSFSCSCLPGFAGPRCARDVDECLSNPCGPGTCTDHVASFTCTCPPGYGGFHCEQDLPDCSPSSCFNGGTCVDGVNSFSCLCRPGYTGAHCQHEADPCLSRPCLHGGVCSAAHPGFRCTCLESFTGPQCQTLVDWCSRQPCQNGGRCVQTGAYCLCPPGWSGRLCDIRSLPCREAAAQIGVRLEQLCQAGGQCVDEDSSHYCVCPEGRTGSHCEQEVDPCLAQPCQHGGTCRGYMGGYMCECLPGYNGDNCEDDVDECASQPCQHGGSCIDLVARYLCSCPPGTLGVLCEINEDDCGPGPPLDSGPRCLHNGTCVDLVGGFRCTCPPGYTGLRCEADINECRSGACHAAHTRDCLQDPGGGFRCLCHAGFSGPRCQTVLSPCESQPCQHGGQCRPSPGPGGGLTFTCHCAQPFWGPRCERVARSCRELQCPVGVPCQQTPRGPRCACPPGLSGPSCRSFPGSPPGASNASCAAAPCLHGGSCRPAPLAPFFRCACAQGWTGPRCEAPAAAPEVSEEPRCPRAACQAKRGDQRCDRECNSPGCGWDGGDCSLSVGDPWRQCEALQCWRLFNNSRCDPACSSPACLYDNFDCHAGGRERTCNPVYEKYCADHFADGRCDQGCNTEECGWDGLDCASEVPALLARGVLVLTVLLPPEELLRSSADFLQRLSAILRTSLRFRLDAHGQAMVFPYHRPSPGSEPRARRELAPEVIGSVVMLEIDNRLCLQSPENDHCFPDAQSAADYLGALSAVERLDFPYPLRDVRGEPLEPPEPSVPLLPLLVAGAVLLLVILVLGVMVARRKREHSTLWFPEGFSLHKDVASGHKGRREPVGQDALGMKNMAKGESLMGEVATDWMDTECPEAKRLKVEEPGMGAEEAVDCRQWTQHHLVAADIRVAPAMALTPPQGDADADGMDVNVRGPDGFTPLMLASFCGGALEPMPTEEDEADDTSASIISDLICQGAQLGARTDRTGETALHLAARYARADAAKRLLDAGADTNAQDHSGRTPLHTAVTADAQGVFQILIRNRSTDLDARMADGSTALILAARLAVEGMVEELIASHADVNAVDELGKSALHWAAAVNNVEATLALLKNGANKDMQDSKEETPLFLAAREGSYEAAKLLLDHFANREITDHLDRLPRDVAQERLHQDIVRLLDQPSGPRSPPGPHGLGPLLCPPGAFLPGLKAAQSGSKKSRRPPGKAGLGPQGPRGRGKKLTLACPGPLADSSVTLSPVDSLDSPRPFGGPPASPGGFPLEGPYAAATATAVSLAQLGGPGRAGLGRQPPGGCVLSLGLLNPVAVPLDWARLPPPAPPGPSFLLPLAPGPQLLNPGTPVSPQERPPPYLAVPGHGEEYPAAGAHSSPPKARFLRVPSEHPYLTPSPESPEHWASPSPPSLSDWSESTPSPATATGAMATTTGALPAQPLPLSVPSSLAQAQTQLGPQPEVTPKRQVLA
- TEST SUMMARY: NOTCH3 binders on small-molecule microarray, primary screen, biochemical, 635/667 nm fluorescence (AID 1096)
- CONDITION LABEL: NOTCH3 binding, 635 nm fluorescence, higher = more signal
The label depends only on composite z-score: Criterion met if it is at least 0.2, Criterion not met if it is smaller.

[
  {
    "COMPOUND": "COC(=O)[C@H](C)NC(=O)CCC1CC(OC(=O)NCc2cccc3ccccc23)CC2(CCCC(COC(=O)NCCC(C)C)O2)O1 (stereo not given in full)",
    "CAT": "Criterion met"
  },
  {
    "COMPOUND": "C[C@H]1CC[C@H]2C(=O)N[C@H](Cc3ccccc3)C(=O)N2[C@@H]1c1ccccc1",
    "CAT": "Criterion not met"
  },
  {
    "COMPOUND": "CCOC(=O)[C@H](Cc1ccccc1)NC(=O)CCC1CC(OC(=O)NCCc2ccc(F)cc2)CC2(CCCC(COC(=O)NCCC(C)C)O2)O1 (stereo not given in full)",
    "CAT": "Criterion met"
  },
  {
    "COMPOUND": "CC(CCN1CCCCc2nc(C)c(C)cc21)=NOC[C@@H](O)[C@H]1O[C@@H]2OC(C)(C)O[C@@H]2[C@H]1O",
    "CAT": "Criterion met"
  },
  {
    "COMPOUND": "COC(=O)[C@@H]1CC[C@H](C)[C@@H](c2ccc(C)cc2)N1C(=O)c1ccc(C=NO[C@@H](C)c2cc(-c3c(C)cc(C)cc3C)no2)cc1",
    "CAT": "Criterion met"
  }
]

---

- TEST SUMMARY: small-molecule microarray binders of probe aEGFR, primary screen, biochemical, biotinylated probe, 635/667 nm fluorescence (AID 1097);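 further: probe is a biotinylated anti-EGFR antibody binding compounds printed on slides; score combines fluorescence near 667 nm and signal to noise of each spot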
- CONDITION LABEL: higher = more signal

[
  {
    "MOLECULE": "CCOC(=O)[C@H](Cc1ccccc1)NC(=O)CCC1CC(OC(=O)NCc2cccc3ccccc23)CC2(CCCC(COC(=O)NCc3ccc4c(c3)OCO4)O2)O1 (some centres undefined)",
    "composite z-score": 0.104
  },
  {
    "MOLECULE": "COC(=O)[C@H](C)NC(=O)CCC1CC(OC(=O)NCCc2ccc(F)cc2)CC2(CCCC(COC(=O)NCc3ccccc3)O2)O1 (some centres undefined)",
    "composite z-score": -0.0314
  },
  {
    "MOLECULE": "CCN1C(=O)[C@H]2[C@H]3[C@H](O)[C@H](O)CC(=NOC(C)CN4CCCc5nc(C)c(C)cc54)[C@@H]3CC[C@H]2C1=O (some centres undefined)",
    "composite z-score": 0.012
  },
  {
    "MOLECULE": "COC(=O)[C@H](C)NC(=O)CCC1CC(OC(=O)NCc2cccc3ccccc23)CC2(CCCC(COC(=O)NCCOc3ccccc3)O2)O1 (some centres undefined)",
    "composite z-score": -0.145
  },
  {
    "MOLECULE": "CCC1=NOC(CCC2CC(OC(=O)NCc3cccc4c3OCO4)CC3(CCCC(COC(=O)NCCc4ccc(Cl)cc4)O3)O2)C1 (centres undefined)",
    "composite z-score": -0.125
  },
  {
    "MOLECULE": "CC(=O)OC[C@H]1O[C@H](C#CCC2CCCCC2)C=C[C@@H]1OC(C)=O",
    "composite z-score": 0.0698
  },
  {
    "MOLECULE": "O=C1[C@H]2[C@H]3[C@H](O)[C@H](O)CC(=NO[C@@H]4O[C@H](CO)[C@@H](O)[C@H](O)[C@H]4O)[C@@H]3CC[C@H]2C(=O)N1C1CCCCC1",
    "composite z-score": -0.111
  },
  {
    "MOLECULE": "COC(=O)CC=C[C@@H](C)[C@@H](C=NOC[C@@H](C)[C@H](OCc1ccccc1)C(C)C)NS(=O)(=O)c1ccc(C)cc1",
    "composite z-score": -0.142
  },
  {
    "MOLECULE": "COC(=O)[C@H](C)NC(=O)CC=C[C@@H](C)[C@@H]1C=C[C@H](O)[C@@H](CO)O1",
    "composite z-score": 0.241
  }
]
